# testDescription: yeast display, Sf9 membrane polyspecificity reagent, FACS + sequencing; frameworks hold sequencing errors
reportedMetric: polyreactivity (PSR sort gate)

Illustrative cases are given below, each with its answer.
sequence | reportedMetric | measurement
QVQLVESGGGLVQAGGSLRLSCAASGRIFYSYAMGWYRQAPGKERELVAAITRTGGNTYYADSVKGRFTISRDNAKNTVYLQMNSLKPEDTAVYYCNAEYWKEHYPEIYYSWGQGTQVTVSS | polyreactivity (PSR sort gate) | low polyreactivity
QVQLVESGGGLVQAGGSLRLICAASGRTFKYYAMGWYRQAPGKERELVATITWSGTSTNYADSVKRRFTISRDIGKNSVYLQMNSLKPEDSAVYYCAARSKRRNYDYWGQGTQVTVSS | polyreactivity (PSR sort gate) | high polyreactivity
QVQLVESGGGLVQAGGRLRLSCAASGITFSGYVLGWDRPAPGKERELVAAISSSGGRTYYADSVKGRFTISRDNAKNTVYLQMNSLKPEDTAVYYCAARFLYANRYSVDYDYWGQGTQVTVSS | polyreactivity (PSR sort gate) | high polyreactivity
QVQLVESGGGLVQAGGSLRLSCAASGRPLGQNVMGWYRQAPGKERELVAASSSNTAGNTYYADSVKGRFTISRDNAKNTVYLQMNSLKAEDTAVYYCAKVDSFEAKLDYWGQGTQVTVSS | polyreactivity (PSR sort gate) | low polyreactivity
QVQLVESGGGLVQAGGSLRLSCAASGRTFNAYAMGWYRHAPGKERELVAAISSGGSTYYADSVKGRFTISRDNAKNTVYLLMNSLKPEDTAVYYCNKVYGWRQFDYWGQGTQVTVSS | polyreactivity (PSR sort gate) | high polyreactivity
QVQLGESGGGLLQAGGSLRLSCAASGRTISKNGMGWYRQAPGKERELVAAISGSGGTTYYADSVKGRFTISRDNAKNTVYLQMNSLKPEDTAVYYSADRYTVSRSGYWGLGTQVTVSS | polyreactivity (PSR sort gate) | high polyreactivity
QVQLVESGGGLVQAGGSLRLSCAASGLTFFRNAMGWYRQAPGKEREFVAGITSTDGSTYYADSVKGRFTISRDNAKNTVYLQMNSLKPEDTAVYYCAAAYRVRGRTYDAWGQGTQVTVSS | polyreactivity (PSR sort gate) | high polyreactivity
QVKLVESGGGLVQAGCSLRISCAASGITFKNYAMGWYRQAHGKERELVAAIRSIAGRTNYADSVKGRFTISRDYANNTVYLKMNSLKPEDTAVYYFTAANRGQRSDYRGYYYWGQGTQVTVSS | polyreactivity (PSR sort gate) | high polyreactivity
QVQLVESGGGLVQAGGSLRLSCAASGRIFYGYTMGWARQAPGKERQLVAAITWSGGSTYYADSVKGRFTISRDNAKYSVYLQMNSLKPKDTAVYYCAATLGNAADYDYGYWGQGTQVTVSS | polyreactivity (PSR sort gate) | high polyreactivity
QVQLQESGGGLVQAGRSLRLSCEASGSISILQSMGWYRQAPGKEGELVAGINWGATTYYADSVKVRLTTSRDYAKNTVYLEMNSLKPEETAVYYCAVPTYYTYPLLYWGPGTQVTVSS | polyreactivity (PSR sort gate) | low polyreactivity

Data request: Look up polyreactivity (PSR sort gate) of QVQLVESGGGLVQAGGSLRLSCAASGGIFDIYAMGWYRQAPGKERELVAAIRGSGGRTYYADSVKGRFTISRDNAKNTVYLQMNSLKPEDTAVYYCAARPSIVTGLRYGYWGQGTQVTVSS and report it.
Data returned: high polyreactivity
